# SUBJECT_OF_TEST: T1, human IFP35 protein (human, UniProt P80217 1-286, limits assumed)
# T1 construct: also called interferon-induced protein 35; IFI35
# T1 chain: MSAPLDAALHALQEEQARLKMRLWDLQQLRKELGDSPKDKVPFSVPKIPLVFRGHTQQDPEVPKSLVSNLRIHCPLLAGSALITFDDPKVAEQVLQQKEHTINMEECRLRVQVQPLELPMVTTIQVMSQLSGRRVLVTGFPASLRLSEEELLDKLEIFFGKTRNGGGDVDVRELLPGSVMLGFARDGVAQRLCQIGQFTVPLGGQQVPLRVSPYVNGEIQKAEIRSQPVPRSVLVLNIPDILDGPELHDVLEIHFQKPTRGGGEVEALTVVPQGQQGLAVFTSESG
# ASSAY: ELISA (OD450) on human IFP35 protein
TEST_READOUT: EC50 (read off the curve)

Q: Item 35NIDmAb (antibody, V domains shown, Mouse monoclonal antibody from hybridoma ascites; also called AE001-VH+VL; AE001-VH+VL (35NIDmAb)) VH: VQLVESGPELKKPGETVKISCKASGYTFTNYGMNWVKQAPGKGLKWMGWINTYTGEPTFADDFKGRFAFSLETSASTAYLQINNLKNEDTATYFCARYGYSWAMDYWGQGTSVTVSS VL: DIVMTQSPAIMSASPGEKVTMTCSASSSVSYMHWYQQKSGTSPKRWIYDTSKLASGVPARFSGSGSGTSYSLTISSMEAEDAATYYCQQWSSNPPITFGAGTKLEIK has what recorded EC50 (read off the curve)?
Result: ~0.06 µg/mL
